Hey, just so you know, these numbers are from patent US10077261B2.

Biological target: hFASN enzyme (full length) (Homo sapiens)
Construct: 10 μL hFASN enzyme (full length, 300 ng, purified in house); made in house
Sequence (P49327 whole entry): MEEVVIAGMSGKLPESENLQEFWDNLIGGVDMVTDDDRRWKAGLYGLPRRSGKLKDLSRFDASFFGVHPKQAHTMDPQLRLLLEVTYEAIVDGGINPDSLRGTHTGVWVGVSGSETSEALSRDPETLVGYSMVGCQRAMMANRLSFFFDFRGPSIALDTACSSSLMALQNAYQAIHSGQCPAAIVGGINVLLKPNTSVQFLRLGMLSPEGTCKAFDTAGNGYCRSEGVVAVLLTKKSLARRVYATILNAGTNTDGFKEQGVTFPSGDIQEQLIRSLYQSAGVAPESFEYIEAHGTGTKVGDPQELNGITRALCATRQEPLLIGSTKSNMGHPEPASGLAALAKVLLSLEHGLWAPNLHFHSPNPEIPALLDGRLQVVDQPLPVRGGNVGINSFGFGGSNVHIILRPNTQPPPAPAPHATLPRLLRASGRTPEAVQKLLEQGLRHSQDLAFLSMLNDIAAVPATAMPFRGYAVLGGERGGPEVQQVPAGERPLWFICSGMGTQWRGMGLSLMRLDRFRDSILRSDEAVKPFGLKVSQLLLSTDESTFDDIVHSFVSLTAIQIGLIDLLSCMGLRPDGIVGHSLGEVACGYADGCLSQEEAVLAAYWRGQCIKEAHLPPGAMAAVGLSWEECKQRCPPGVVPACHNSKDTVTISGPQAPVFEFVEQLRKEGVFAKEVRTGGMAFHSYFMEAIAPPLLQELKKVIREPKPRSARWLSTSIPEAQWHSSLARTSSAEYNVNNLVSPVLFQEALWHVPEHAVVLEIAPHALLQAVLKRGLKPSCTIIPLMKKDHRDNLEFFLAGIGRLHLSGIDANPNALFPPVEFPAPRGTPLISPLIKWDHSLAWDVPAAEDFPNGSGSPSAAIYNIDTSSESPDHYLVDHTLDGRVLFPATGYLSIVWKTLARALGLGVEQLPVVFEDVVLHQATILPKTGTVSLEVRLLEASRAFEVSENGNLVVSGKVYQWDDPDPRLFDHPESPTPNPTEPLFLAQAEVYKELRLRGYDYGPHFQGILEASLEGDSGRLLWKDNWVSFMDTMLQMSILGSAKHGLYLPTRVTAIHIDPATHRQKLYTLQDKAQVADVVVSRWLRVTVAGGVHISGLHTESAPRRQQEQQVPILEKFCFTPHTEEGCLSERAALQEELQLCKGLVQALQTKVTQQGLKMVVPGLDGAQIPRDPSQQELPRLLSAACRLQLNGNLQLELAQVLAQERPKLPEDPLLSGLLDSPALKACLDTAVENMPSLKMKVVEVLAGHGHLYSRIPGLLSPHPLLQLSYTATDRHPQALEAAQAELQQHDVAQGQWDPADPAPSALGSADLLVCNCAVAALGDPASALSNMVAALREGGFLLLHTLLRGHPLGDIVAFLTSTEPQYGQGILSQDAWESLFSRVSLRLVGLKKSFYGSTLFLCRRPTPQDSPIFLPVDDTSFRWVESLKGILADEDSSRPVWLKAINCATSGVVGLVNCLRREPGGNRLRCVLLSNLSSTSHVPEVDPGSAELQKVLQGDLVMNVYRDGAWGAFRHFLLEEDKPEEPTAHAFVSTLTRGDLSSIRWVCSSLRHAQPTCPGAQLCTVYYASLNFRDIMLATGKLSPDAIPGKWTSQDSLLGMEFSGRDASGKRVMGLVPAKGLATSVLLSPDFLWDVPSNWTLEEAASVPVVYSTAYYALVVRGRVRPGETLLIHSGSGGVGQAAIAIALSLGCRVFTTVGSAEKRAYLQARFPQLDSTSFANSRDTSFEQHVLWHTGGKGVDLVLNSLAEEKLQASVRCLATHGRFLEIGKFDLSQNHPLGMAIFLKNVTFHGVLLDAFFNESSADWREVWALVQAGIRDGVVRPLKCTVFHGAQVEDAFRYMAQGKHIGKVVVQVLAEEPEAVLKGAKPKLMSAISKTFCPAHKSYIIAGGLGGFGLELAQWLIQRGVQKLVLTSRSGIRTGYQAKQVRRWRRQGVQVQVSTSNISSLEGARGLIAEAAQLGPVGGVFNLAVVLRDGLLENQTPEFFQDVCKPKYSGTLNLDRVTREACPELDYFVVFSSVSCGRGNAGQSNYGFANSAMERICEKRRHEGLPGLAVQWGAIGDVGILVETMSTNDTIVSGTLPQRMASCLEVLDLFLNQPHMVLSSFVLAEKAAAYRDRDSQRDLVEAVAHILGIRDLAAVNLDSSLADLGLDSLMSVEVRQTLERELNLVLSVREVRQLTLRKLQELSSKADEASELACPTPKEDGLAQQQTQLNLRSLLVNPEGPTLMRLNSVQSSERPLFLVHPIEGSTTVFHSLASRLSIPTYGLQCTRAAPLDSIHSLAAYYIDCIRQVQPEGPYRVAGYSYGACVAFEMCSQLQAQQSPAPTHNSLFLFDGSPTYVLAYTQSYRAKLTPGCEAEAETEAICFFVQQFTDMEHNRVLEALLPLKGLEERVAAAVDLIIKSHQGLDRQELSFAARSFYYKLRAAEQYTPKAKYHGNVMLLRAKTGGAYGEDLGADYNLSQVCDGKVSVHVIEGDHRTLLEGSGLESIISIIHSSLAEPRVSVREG
Assay: Fatty Acid Synthase (FASN) inhibition scintillation proximity assay
Type: biochemical
Settings: read-out: Human FASN pIC50 (converted)
Classification by IC50 | ranges: b0 (below 100 nM), b1 (100 nM to below 400 nM), b2 (400 nM or more)

[
  {
    "compound": "Cc1cc2cc(-c3ccc(C4=NC5(CC5)C(=O)N4C[C@@H]4CCN(C(=O)C5(O)CC5)C4)c(F)c3)ccc2s1",
    "target.or.system": "hFASN enzyme (full length) (Homo sapiens)",
    "answer.label": "b0"
  },
  {
    "compound": "O=C(C1CC1)N1CC[C@@H](CN2C(=O)C3(CC3)N=C2c2ccc(-c3ccc(OC(F)(F)F)cc3)cc2)C1",
    "target.or.system": "hFASN enzyme (full length) (Homo sapiens)",
    "answer.label": "b2"
  },
  {
    "compound": "N#Cc1ccc2cc(-c3ccc(C4=NC5(CC5)C(=O)N4CC4CN(C(=O)C5CCO5)C4)c(F)c3)ccc2c1 (stereo not drawn)",
    "target.or.system": "hFASN enzyme (full length) (Homo sapiens)",
    "answer.label": "b0"
  },
  {
    "compound": "Cc1cc2cc(-c3ccc(C4=NC5(CC5)C(=O)N4C[C@@H]4CCN(C(=O)C5CC5)C4)cc3F)ccc2o1",
    "target.or.system": "hFASN enzyme (full length) (Homo sapiens)",
    "answer.label": "b1"
  },
  {
    "compound": "Cc1cc(-c2cccc3nn(C)cc23)ccc1C1=NC2(CC2)C(=O)N1CC1CN(C(=O)C2(C)CC2)C1",
    "target.or.system": "hFASN enzyme (full length) (Homo sapiens)",
    "answer.label": "b1"
  },
  {
    "compound": "COc1cccc2ccc(-c3ccc(C4=NC5(CC5)C(=O)N4CC4CN(C(=O)C5(O)CC5)C4)c(F)c3)cc12",
    "target.or.system": "hFASN enzyme (full length) (Homo sapiens)",
    "answer.label": "b0"
  },
  {
    "compound": "Cc1cc2cc(-c3ccc(C4=NC5(CC5)C(=O)N4C[C@@H]4CCN(C(=O)C5CC5)C4)cc3)ccc2[nH]1",
    "target.or.system": "hFASN enzyme (full length) (Homo sapiens)",
    "answer.label": "b0"
  },
  {
    "compound": "O=C(C1CC1)N1CC[C@@H](CN2C(=O)C3(CC3)N=C2c2ccc(-c3ccc4[nH]ncc4c3)c(F)c2)C1",
    "target.or.system": "hFASN enzyme (full length) (Homo sapiens)",
    "answer.label": "b1"
  },
  {
    "compound": "COC(=O)N1CC[C@@H](CN2C(=O)C3(CCOC3)N=C2c2ccc(-c3ccc4c(cnn4C)c3)cc2)C1 (stereo partly drawn)",
    "target.or.system": "hFASN enzyme (full length) (Homo sapiens)",
    "answer.label": "b2"
  },
  {
    "compound": "Cn1cc(-c2ccc(-c3ccc(C4=NC5(CC5)C(=O)N4CC4CN(C(=O)C5CC5)C4)cc3)nc2)cn1",
    "target.or.system": "hFASN enzyme (full length) (Homo sapiens)",
    "answer.label": "b1"
  },
  {
    "compound": "Cc1cc2cc(-c3ccc(C4=NC5(CCN(CCO)CC5)C(=O)N4C[C@@H]4CCN(C(=O)C5CC5)C4)cc3)ccc2o1",
    "target.or.system": "hFASN enzyme (full length) (Homo sapiens)",
    "answer.label": "b1"
  },
  {
    "compound": "Cc1ccc2ccc(-c3ccc(C4=NC5(CC5)C(=O)N4CC4CN(C(=O)C5(C)CC5)C4)c(C)c3)cc2n1",
    "target.or.system": "hFASN enzyme (full length) (Homo sapiens)",
    "answer.label": "b1"
  },
  {
    "compound": "O=C(C1CC1)N1CC[C@@H](CN2C(=O)C3(CC3)N=C2c2cnc(-c3ccc4occc4c3)nc2)C1",
    "target.or.system": "hFASN enzyme (full length) (Homo sapiens)",
    "answer.label": "b2"
  },
  {
    "compound": "Cn1cc(-c2ccc(-c3ccc(C4=NC5(CCOC5)C(=O)N4CC4CCN(S(C)(=O)=O)C4)cc3)cc2)cn1 (stereo not drawn)",
    "target.or.system": "hFASN enzyme (full length) (Homo sapiens)",
    "answer.label": "b2"
  },
  {
    "compound": "Cn1nc(N)c2ccc(-c3ccc(C4=NC5(CC5)C(=O)N4C[C@@H]4CCN(C(=O)C5CC5)C4)cc3)cc21",
    "target.or.system": "hFASN enzyme (full length) (Homo sapiens)",
    "answer.label": "b1"
  },
  {
    "compound": "Cc1cc(-c2ccc3ccc(Br)cc3n2)ccc1C1=NC2(CC2)C(=O)N1CC1CN(C(=O)C2(C)CC2)C1",
    "target.or.system": "hFASN enzyme (full length) (Homo sapiens)",
    "answer.label": "b2"
  },
  {
    "compound": "Cc1cc2cc(-c3ccc(C4=NC5(CC5)C(=O)N4CC4CN(C(=O)C5CC5)C4)cc3C)ccc2s1",
    "target.or.system": "hFASN enzyme (full length) (Homo sapiens)",
    "answer.label": "b2"
  },
  {
    "compound": "Cn1cc(-c2ccc(-c3ccc(C4=NC5(CC5)C(=O)N4CC4CN(C(=O)C5CC5)C4)cc3)cc2)cn1",
    "target.or.system": "hFASN enzyme (full length) (Homo sapiens)",
    "answer.label": "b0"
  },
  {
    "compound": "Cc1cc(-c2cccc(S(=O)(=O)C(C)C)c2)ccc1C1=NC2(CC2)C(=O)N1C[C@@H]1CCN(C(=O)C2CC2)C1",
    "target.or.system": "hFASN enzyme (full length) (Homo sapiens)",
    "answer.label": "b2"
  },
  {
    "compound": "Cc1cc(-c2ccc3c(cnn3C)c2)ccc1C1=NC2(CC2)C(=O)N1CC1CN(C(=O)C2CCCO2)C1 (stereo in doubt) [compound 206]",
    "target.or.system": "hFASN enzyme (full length) (Homo sapiens)",
    "answer.label": "b0"
  },
  {
    "compound": "O=C(C1CC1)N1CCC[C@H](CN2C(=O)C3(CC3)N=C2c2ccc(-c3ccc4[nH]ncc4c3)cc2)C1",
    "target.or.system": "hFASN enzyme (full length) (Homo sapiens)",
    "answer.label": "b2"
  },
  {
    "compound": "O=C(C1CC1)N1CC[C@@H](CN2C(=O)C3(CC3)N=C2c2ccc(-c3cccc4[nH]ncc34)cn2)C1",
    "target.or.system": "hFASN enzyme (full length) (Homo sapiens)",
    "answer.label": "b1"
  },
  {
    "compound": "Cc1ccc(-c2ccc(-c3ccc(C4=NC5(CC5)C(=O)N4C[C@H]4CCN(C(=O)C5CC5)C4)cc3)cc2)cc1",
    "target.or.system": "hFASN enzyme (full length) (Homo sapiens)",
    "answer.label": "b1"
  },
  {
    "compound": "O=C(C1CC1)N1CC(CN2C(=O)C3(CC3)N=C2c2ccc(-c3ccc4[nH]ncc4c3)c(F)c2)C1",
    "target.or.system": "hFASN enzyme (full length) (Homo sapiens)",
    "answer.label": "b2"
  },
  {
    "compound": "O=C(C1CC1)N1CC[C@@H](CN2C(=O)C3(CCCC3)N=C2c2ccc(-c3cnc4[nH]ccc4c3)cc2F)C1",
    "target.or.system": "hFASN enzyme (full length) (Homo sapiens)",
    "answer.label": "b1"
  }
]

====

# log10 of IC50 per entry for Fatty Acid Synthase Keto-reductase Domain (FASN KR) (Homo sapiens)
recorded.metric: log10 of IC50 (log10 of the value in nM)

[
  {
    "compound": "O=C(C1CC1)N1CC(CN2C(=O)C3(CC3)N=C2c2ccc(-c3ccc4cncnc4c3)cc2)C1",
    "value.measured": 2.68
  },
  {
    "compound": "COc1cccc2cc(-c3ccc(C4=NC5(CC5)C(=O)N4CC4CN(C(=O)C5CC5)C4)c(F)c3)ccc12",
    "value.measured": 3.13
  },
  {
    "compound": "O=C(C1CC1)N1CC[C@@H](CN2C(=O)C3(CC3)N=C2c2ccc(-c3ccc(-c4ccncc4)cc3)cc2)C1",
    "value.measured": 1.66
  },
  {
    "compound": "O=C(C1CC1)N1CC[C@@H](CN2C(=O)C3(CCN(C(=O)C(F)(F)F)CC3)N=C2c2ccc(-c3ccc4[nH]ccc4c3)cc2)C1",
    "value.measured": 2.22
  },
  {
    "compound": "N#Cc1cc2cc(-c3ccc(C4=NC5(CC5)C(=O)N4C[C@@H]4CCN(C(=O)C5CC5)C4)cc3F)ccc2o1",
    "value.measured": 2.99
  },
  {
    "compound": "Cn1ncc2cc(-c3ccc(C4=NC5(CC5)C(=O)N4CC4CN(C(=O)C5CC5)C4)c(F)c3)ccc21",
    "value.measured": 2.08
  },
  {
    "compound": "Cc1cc(-c2ccc3c(c2)ncn3C)ccc1C1=NC2(CC2)C(=O)N1CC1CN(C(=O)C2(C)CC2)C1",
    "value.measured": 2.10
  },
  {
    "compound": "O=C(C1CC1)N1CCC(CN2C(=O)C3(CC3)N=C2c2ccc(-c3ccc4cnccc4c3)cc2)CC1",
    "value.measured": 2.83
  },
  {
    "compound": "Cn1cnc2cc(-c3ccc(C4=NC5(CC5)C(=O)N4CC4CN(C(=O)C5CC5)C4)c(F)c3)ccc21",
    "value.measured": 1.94
  },
  {
    "compound": "Cc1cc(-c2ccc(Cl)cc2)ccc1C1=NC2(CCCC2)C(=O)N1C[C@@H]1CCN(C(=O)C2CC2)C1",
    "value.measured": 2.42
  },
  {
    "compound": "Cc1cc(-c2ccc(-c3ccnn3C)cc2)ccc1C1=NC2(CC2)C(=O)N1C[C@@H]1CCN(C(=O)C2(C)CC2)C1",
    "value.measured": 2.37
  },
  {
    "compound": "O=C([C@H]1CCCO1)N1CC(CN2C(=O)C3(CCOCC3)N=C2c2ccc(-c3ccc4cccnc4c3)cc2)C1",
    "value.measured": 2.92
  },
  {
    "compound": "CC(O)C(=O)N1CC[C@@H](CN2C(=O)C3(CCOCC3)N=C2c2ccc(-c3ccc4cccnc4c3)cc2)C1 (some centres unmarked)",
    "value.measured": 2.79
  }
]
